Source: patent US20070117743A1

- Test system: HeLa-APL
- Experiment Summary: SRB colorimetric assay of cell growth and viability, HeLa-APL
- Format: cell-based, human
- Conditions Used: 48 hours exposure; read-out: LC50 HELA-APL
Where a SMILES comes first, the peptide text is derived from it. Bridges are numbered along the chain shown (N, C = ends). [ ]: non-standard residue; d: D form. The star is where a group is joined. d(aIle) = CC[C@H](C)[C@@H](N)C(=O)O; d(aThr) = C[C@@H](O)[C@@H](N)C(=O)O; Hexanoyl(5-Me) = CC(C)CCCC(=O)*; Orn = NCCC[C@H](N)C(=O)O; Dhb = C/C=C(\N)C(=O)O
Property Label: CC50 (µM)
One number for each entry, in µM.

C/C=C1\NC(=O)[C@H](Cc2ccccc2)NC(=O)[C@@H](C(C)C)NC(=O)[C@@H]([C@@H](C)CC)NC(=O)[C@H](NC(=O)[C@H](NC(=O)[C@H](CCCN)NC(=O)[C@H]2CCCN2C(=O)[C@H](NC(=O)[C@@H](NC(=O)[C@@H](NC(=O)[C@@H](CC(C)C)NC(=O)CCCC(C)C)[C@@H](C)O)C(C)C)C(C)C)[C@@H](C)CC)[C@@H](C)OC(=O)[C@H](C(C)C)NC1=O [Compound 35, [D-Leu^13]-KF]: 6.7

Could you now consider this next compound?
For this compound ( C/C=C1\NC(=O)[C@H](Cc2ccccc2)NC(=O)[C@@H](C(C)C)NC(=O)[C@@H]([C@@H](C)CC)NC(=O)[C@H](NC(=O)[C@H](NC(=O)[C@H](CCCN)NC(=O)[C@H]2CCCN2C(=O)[C@H](NC(=O)[C@@H](NC(=O)[C@@H]2CCCN2C(=O)CCCC(C)C)C(C)C)C(C)C)[C@@H](C)CC)[C@@H](C)OC(=O)[C@H](C(C)C)NC1=O [Compound 55, [Pro^12, noD-Val^13]-KF] ({Hexanoyl(5-Me)}-PV[dV][dP][Orn][d(aIle)][d(aThr)][d(aIle)][dV]F[Dhb]V; ester 7-C) ), measured CC50 is 7.27
